Catalogue of binders with associated FLIPR IC50
Molecular target: T1, human IL-8 (human, UniProt P10145 28-99, limits assumed)
T1 sequence (looked up): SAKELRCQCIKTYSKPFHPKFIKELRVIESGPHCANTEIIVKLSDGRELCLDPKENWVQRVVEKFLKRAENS
Test: cell-based or functional assay

{"Binder": "1A1.4C6 (antibody, IgG1, V domains shown) VH: EVQLQQSGPELVKPGASVKISCKASGYTFIDYYMNWVKQSQGKSLEWIGDVNPDDGDTTYNQQFKDKATLTVDKSSSTAYMELRSLTSEDSAVYYCARDDRTSGYFDVWGTGTTVTVSS VL: DIQMTQSTSSLSASLGDRVTISCRASQDIRNYLNWFQQKPDGTVKLLIYYTSIVHSRVPSRFSGSGSGTDYSLTINNLDQEDIATYFCQQANTLPWTFGGGTKLETK", "FLIPR IC50": "> 200 µg/mL"}
{"Binder": "1L132.23 (antibody, IgG1, V domains shown) VH: QVQLQQPGAELVKPGASVKVSCKASGYTFTNYWMHWVRQRPGQGLEWIGRIHPSDNDTNYNQKFKDKATLTVDKSSNTAYMQLSSLTSEDSAVYYCAIGVYDGFIGLWGQGTSVTVSS VL: DIQMTQSPASQSASLGESVTITCLASQTIGTWLAWYQQKPGKSPQLLIYAATRLADGVPSRFSGSGSGTKFSFKISSLQAEDFVSYYCQQLSSTPWTFGGGTKLEIK", "FLIPR IC50": "> 67 µg/mL"}
{"Binder": "2X907.15 (antibody, IgG1, V domains shown) VH: EVKLVESGGGLVKPGGSLKLSCAASGFTFSDYYMYWVRQSPEKRLEWVATVSDVGSYTYYSGSVRGRFTISRDNAKNNLYLQMSSLQSEDTAIYYCSRDRTLDYWGQGTSVIVTS VL: QIVLTQSPAIMSASPGEKVTITCNASSSVSYMHWFQQKPGTSPKLWIYSTSNLASGVPARFSGSGSGTSYSLTISRMEAEDAATYYCHQRSSFPPTFGGGTKLEIK", "FLIPR IC50": "> 67 µg/mL"}

-- ask Dear colleague, I am looking for the recorded FLIPR IC50 of the following binder: 7A12.1F10 (antibody, IgG1, V domains shown) VH: QVQLQQSGAELVKPGASVKLSCKASGYIFTSNDINWVRQRPEQGLEWIGWIFPGDNSTKFNEKFRDKATLTTDKSSSTAYMQLSGLTSEDSAVYFCATFYGSTYGYYFDYWGQGTTLTVSS VL: DIVMTQSHKFMSTSVGDRVSITCKASQDVGTAVAWYQQKPGQSPKLLIYWTDTRHTGVPDRFTGSGSGTDFTLTISNVESEDCVDYFCHQYNNYPLTFGAGTKLELK
-- reply > 200 µg/mL

-- ask Dear colleague, I am looking for the recorded FLIPR IC50 of the following binder: 9D12.1H4 (antibody, IgG1, V domains shown) VH: EVQLQQSGPELVKPGASVRMSCKASGNTVIDYNIHWVKQSQGKSLEWIGYINPNSGGTGYNEKFKDKATLTINKSSSTAHMDLRSLTSEDSAVYYCTRFDFWGQGTTLTVSS VL: DVLMTQTPLSLPVSLGDQASISCRSTQSIVPVNGNTHLEWYLHKPGQSPKLLIYKVSNRFSGVPDRFSGSGSGTDFTLKISRVEAEDLGVYYCFQASHVPWTFGGGTKLEIK
-- reply 3.4 µg/mL
